Would you mind telling me the reported zone of inhibition at 5000 µg/mL of each entry?
Tested on: Shigella flexneri
Test: Antimicrobial activity against Shigella flexneri RCMB 0100542 assessed as diameter of zone inhibition at 5 mg/ml after 24 hrs by agar well diffusion assay
Assay type: functional
Conditions: RCMB 0100542, 24 h, read-out: DIZ
// unit must come after the numeric part

Look over these answered cases.
- compound: "N#Cc1c(-c2cccc(Cl)c2)nn(-c2ccc3ccccc3n2)c1N"
  zone of inhibition at 5000 µg/mL: "0 mm"
- compound: "Clc1ccc(-c2nn(-c3ccccc3)cc2/C=N/Nc2ccc3ccccc3n2)cc1"
  zone of inhibition at 5000 µg/mL: "21.8 mm"
- compound: "Cc1nn(-c2ccc3ccccc3n2)c(N)c1C#N"
  zone of inhibition at 5000 µg/mL: "15.9 mm"
- compound: "COc1ccc(C2=NN(c3ccccc3)C(c3ccc(Oc4ccc5ccccc5n4)cc3)C2)cc1 (stereo not given)"
  zone of inhibition at 5000 µg/mL: "14.4 mm"

Now look at this entry.
Consider the compound shown here: COc1ccc(C2CC(c3ccc(Oc4ccc5ccccc5n4)cc3)=NN2)cc1 (stereo not given) What is its recorded zone of inhibition at 5000 µg/mL?
14.3 mm
